Reported growth values for a set of compounds
System: U251 CNS
Test: NCI-60 one-dose screen, 48 h (100 = growth as untreated, 0 = no growth, -100 = all killed)
Details: 10 µM unless noted
The panel holds about 83,000 compounds, 20% with a hit somewhere; the sample as a whole holds those more often. The source made the active and inactive calls. How the source made its calls: active means growth percent below 10; inactive means the rest.

Illustrative cases are given below, each with its answer.
mol.smiles: NC(=NCCCCCCN=C(N)/N=C(\N)Nc1ccc(Cl)cc1)/N=C(\N)Nc1ccc(Cl)cc1
value.observed: -5.76% (active)
//
mol.smiles: O=C(Oc1cccc2ccccc12)c1ccccc1C(=O)c1ccccc1
value.observed: 79.5% (inactive)
//
mol.smiles: COc1cccc(-c2nc3cc(NC(=O)c4ccc(Cl)c(C#N)c4)ccc3o2)c1
value.observed: -12.9% (active)
//
mol.smiles: COc1ccc2c(c1)c(CC(=O)[Se]C)c(C)n2C(=O)c1ccc(Cl)cc1
value.observed: 14.9% (inactive)

Entry COc1ccc2cc(-c3nc4ccccc4[nH]3)c(=O)oc2c1 , U251 CNS data, growth value: 93.5% (inactive)
